# SYSTEM: GST-human receptor interacting protein kinase 1 fusion (8-327) enzyme (Homo sapiens, UniProt Q13546)
# Sequence (Q13546 8-327): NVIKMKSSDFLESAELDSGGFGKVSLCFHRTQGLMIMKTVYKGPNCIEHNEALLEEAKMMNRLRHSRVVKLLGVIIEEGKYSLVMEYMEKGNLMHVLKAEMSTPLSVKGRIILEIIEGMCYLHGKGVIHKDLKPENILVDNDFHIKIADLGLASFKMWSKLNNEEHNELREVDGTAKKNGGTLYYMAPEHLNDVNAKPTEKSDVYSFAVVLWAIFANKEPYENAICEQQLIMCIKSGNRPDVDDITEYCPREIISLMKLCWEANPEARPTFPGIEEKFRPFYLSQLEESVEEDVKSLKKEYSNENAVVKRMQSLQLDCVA
# EXPERIMENTAL_PROTOCOL: Fluorescent Polarization Binding (FP Binding) assay, receptor interacting protein kinase 1
# MEASUREMENT_PARAMETERS: 10 nM enzyme, 5 nM fluorescent-labeled ligand, RT 30 min, mean of a minimum of two independent experiments
READOUT_NAME: IC50

compound="O=C1N2C(c3cncc(F)c3)CCN2CC1(CC1CC1)C(F)F (stereo not drawn) [Compound 52]" readout_name=IC50 result="< 1000 nM"
compound="CC1(C(F)F)CN2CCC(c3cncc(C#N)c3)N2C1=O (single isomer, unassigned) [Compound 39]" readout_name=IC50 result="< 1000 nM"
compound="CCC1(C)CN2CCC(c3cc(F)cc(C#N)c3)N2C1=O (stereo not drawn)" readout_name=IC50 result="< 1000 nM"

====

Documented pIC50 across a set of molecules
# SYSTEM: GST-human receptor interacting protein kinase 1 fusion (8-327) enzyme (Homo sapiens, UniProt Q13546)
# Sequence (Q13546 8-327): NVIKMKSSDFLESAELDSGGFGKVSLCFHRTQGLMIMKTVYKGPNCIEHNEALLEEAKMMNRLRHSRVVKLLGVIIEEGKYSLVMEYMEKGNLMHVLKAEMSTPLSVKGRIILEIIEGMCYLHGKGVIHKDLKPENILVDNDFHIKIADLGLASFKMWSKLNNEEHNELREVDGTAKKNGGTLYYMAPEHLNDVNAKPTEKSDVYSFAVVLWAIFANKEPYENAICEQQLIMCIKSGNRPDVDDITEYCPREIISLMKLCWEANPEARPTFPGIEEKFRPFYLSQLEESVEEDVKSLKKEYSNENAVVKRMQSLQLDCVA
# EXPERIMENTAL_PROTOCOL: Fluorescent Polarization Binding (FP Binding) assay, receptor interacting protein kinase 1
# MEASUREMENT_PARAMETERS: 10 nM enzyme, 5 nM fluorescent-labeled ligand, RT 30 min, mean of a minimum of two independent experiments
pIC50: −log10 of the molar value.
READOUT_NAME: pIC50

molecule="CC1(CC(F)F)CN2CCC(c3cccc(F)c3)N2C1=O (stereo not drawn) [Compound 27]" result="> 6.00"
molecule="CCC1(C(F)F)C[C@H]2CCC(c3cccc(F)c3)N2C1=O (single isomer, unassigned) [Compound 55]" result="> 6.00"
molecule="CC1(CC2CC2)CN2CCC(c3cc(F)cc(C#N)c3)N2C1=O (stereo not drawn) [Compound 35]" result="> 6.00"
molecule="CC(F)(F)C1(C)CN2CCC(c3cncc(F)c3)N2C1=O (stereo not drawn) [Compound 46]" result="4.52 to 6.00"
molecule="CC1(C)CN2CCC(c3cccc(F)c3)N2C1=O (single isomer, unassigned) [Compound 3]" result="> 6.00"
molecule="CC(F)(F)C1(C)CN2CCC(c3cncc(C#N)c3)N2C1=O (stereo not drawn) [Compound 37]" result="> 6.00"
molecule="CC1(C)CN2CCC(c3cccc(C#N)c3)N2C1=O (stereo not drawn) [Compound 4]" result="4.52 to 6.00"
molecule="O=C1N2C(c3cncc(F)c3)CCN2CC1(CC(F)(F)F)C(F)F (stereo not drawn) [Compound 48]" result="4.52 to 6.00"
molecule="CC1(C)CN2CCC(c3ccc(F)c(F)c3)N2C1=O (stereo not drawn) [Compound 9]" result="4.52 to 6.00"
